Tested on: Mast/stem cell growth factor receptor Kit (Homo sapiens), P10721 [D816V]
Sequence (P10721 whole entry D816V): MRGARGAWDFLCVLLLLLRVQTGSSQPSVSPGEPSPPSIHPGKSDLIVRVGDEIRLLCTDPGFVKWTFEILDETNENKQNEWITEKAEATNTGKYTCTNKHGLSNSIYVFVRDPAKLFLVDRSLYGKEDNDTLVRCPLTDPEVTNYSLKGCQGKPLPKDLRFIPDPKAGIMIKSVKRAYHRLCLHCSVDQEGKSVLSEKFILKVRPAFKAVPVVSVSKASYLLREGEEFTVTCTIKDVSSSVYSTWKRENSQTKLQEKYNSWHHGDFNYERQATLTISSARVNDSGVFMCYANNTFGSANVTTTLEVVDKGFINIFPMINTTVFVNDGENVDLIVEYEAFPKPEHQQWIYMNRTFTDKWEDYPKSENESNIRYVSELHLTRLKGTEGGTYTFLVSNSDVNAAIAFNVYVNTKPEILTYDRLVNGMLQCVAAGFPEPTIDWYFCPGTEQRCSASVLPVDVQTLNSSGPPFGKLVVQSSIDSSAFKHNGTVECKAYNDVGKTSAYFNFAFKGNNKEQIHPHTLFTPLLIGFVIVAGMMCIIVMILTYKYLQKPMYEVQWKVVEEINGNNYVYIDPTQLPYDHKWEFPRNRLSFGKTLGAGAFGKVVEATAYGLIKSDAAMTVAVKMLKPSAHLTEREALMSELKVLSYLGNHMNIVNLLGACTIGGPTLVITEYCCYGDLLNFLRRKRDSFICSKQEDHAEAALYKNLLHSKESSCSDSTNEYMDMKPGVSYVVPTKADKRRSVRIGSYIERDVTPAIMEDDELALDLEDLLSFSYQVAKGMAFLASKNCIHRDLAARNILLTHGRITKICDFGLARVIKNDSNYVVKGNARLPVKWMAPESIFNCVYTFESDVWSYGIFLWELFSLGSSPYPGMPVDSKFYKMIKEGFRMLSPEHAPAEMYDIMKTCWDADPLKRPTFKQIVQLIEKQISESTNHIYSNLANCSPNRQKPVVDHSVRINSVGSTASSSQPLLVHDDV
cond: at 0.1 µM
Please enter met where inhibition is greater than or equal to 1%, and not met where it is lower.

Worked examples follow.
CCn1cc(-c2ccnc3[nH]ccc23)c(-c2cccc(NC(=O)Nc3ccc(OCc4ccccc4)cc3)c2)n1	met
COc1ccc(-c2cc3c(N)ncnc3o2)cc1	met
COc1cc2ncn(-c3cc(OCc4ccccc4C(F)(F)F)c(C(=O)N(C)C)s3)c2cc1OC	not met
O=C(O[C@H]1CN[C@H](C#Cc2cc3ncnc(Nc4ccc(Cc5ccccc5)cc4)c3s2)C1)N1CCOCC1	met
Fc1ccc(-c2nn3ncccc3c2-c2ccnc(Nc3ccc4c(c3)OCCO4)n2)cc1	met

Check if inhibition >= 1% (inclusive). Item: Fc1ccc(-c2cc(-c3c[nH]nc3-c3ccccn3)ccn2)cc1 met

Check if inhibition >= 1% (inclusive). Item: CCn1c(-c2nonc2N)nc2ccccc21 met

Check if inhibition >= 1% (inclusive). Item: CCn1c(-c2nonc2N)nc2c(C#CC(C)(C)O)ncc(OC3CCNCC3)c21 met

Check if inhibition >= 1% (inclusive). Item: c1cc(-c2cnn3nc(N4CCOCC4)ccc23)nc(NC2CC2)n1 not met

Check if inhibition >= 1% (inclusive). Item: COc1cc2c(cc1Nc1nc(Nc3ccsc3C(N)=O)c3cc[nH]c3n1)N(C(=O)CN(C)C)CCC2(C)C met

====

assayed.system: Serine/threonine-protein kinase BRSK1 (Homo sapiens) (UniProt Q8TDC3)
Sequence (Q8TDC3 whole entry): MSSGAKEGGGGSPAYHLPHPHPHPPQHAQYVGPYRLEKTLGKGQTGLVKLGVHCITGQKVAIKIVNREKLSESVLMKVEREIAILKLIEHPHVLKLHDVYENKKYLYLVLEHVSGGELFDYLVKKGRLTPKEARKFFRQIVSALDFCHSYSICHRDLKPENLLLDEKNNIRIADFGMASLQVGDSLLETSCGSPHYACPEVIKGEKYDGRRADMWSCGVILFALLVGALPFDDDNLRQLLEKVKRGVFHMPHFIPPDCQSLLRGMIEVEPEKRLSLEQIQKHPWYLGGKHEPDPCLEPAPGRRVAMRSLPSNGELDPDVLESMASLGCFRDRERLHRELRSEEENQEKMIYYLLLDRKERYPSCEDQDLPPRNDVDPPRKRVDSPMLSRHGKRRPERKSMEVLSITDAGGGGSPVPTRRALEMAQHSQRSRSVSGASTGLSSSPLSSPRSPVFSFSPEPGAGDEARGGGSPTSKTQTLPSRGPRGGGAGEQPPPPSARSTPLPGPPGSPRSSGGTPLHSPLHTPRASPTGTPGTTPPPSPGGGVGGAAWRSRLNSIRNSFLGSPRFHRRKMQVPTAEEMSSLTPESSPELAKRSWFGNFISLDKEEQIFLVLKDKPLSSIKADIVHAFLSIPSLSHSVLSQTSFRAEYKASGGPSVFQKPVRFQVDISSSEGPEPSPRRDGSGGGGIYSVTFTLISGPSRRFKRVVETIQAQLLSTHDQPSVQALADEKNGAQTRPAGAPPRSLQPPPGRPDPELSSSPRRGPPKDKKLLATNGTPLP
cond: at 0.1 µM
Description: GSK_PKIS: BRSK1 mean inhibition at 0.1 uM [Nanosyn]
measurement.type: inhibition
Numeric answer plus unit only.

Take a look at these entries with their results.
CCn1c(-c2nonc2N)nc2cnc(Oc3cccc(NC(=O)c4ccc(N(C)C)cc4)c3)cc21	1.7%
CCCN(CCS(C)(=O)=O)Cc1ccc(-c2ccc3ncnc(Nc4ccc(OCc5cccc(F)c5)c(Cl)c4)c3c2)o1	1.22%
Cc1cccc(Nc2ncc(-c3ccccc3)o2)c1	0.14%

// returns reported inhibition for input COc1ccc(-c2nn3ncccc3c2-c2ccnc(Nc3ccc4c(c3)OCCO4)n2)cc1 -0.94%

// returns reported inhibition for input CC(C)COC(=O)c1ccc2c(c1)/C(=C/Nc1ccc(S(N)(=O)=O)cc1)C(=O)N2 5.38%

// returns reported inhibition for input CCn1c(-c2nonc2N)nc2c(C#CC(C)(C)O)nc(OC[C@H](N)c3ccccc3)cc21 0.45%

// returns reported inhibition for input Cc1ccc(O)cc1Nc1ccnc2cc(-c3ccccn3)ccc12 3.63%

// returns reported inhibition for input NS(=O)(=O)c1ccc(Nc2ncc(-c3ccccc3)o2)cc1 1.52%

// returns reported inhibition for input COC(=O)Nc1nc2ccc(S(=O)(=O)c3ccc(NC(=O)Nc4cc(C(F)(F)F)ccc4F)cc3)cc2[nH]1 3.17%

// returns reported inhibition for input CC(=O)NCc1cccc(C#Cc2cncnc2Nc2ccc(OCc3cccc(F)c3)c(Cl)c2)c1 1.85%

// returns reported inhibition for input Cc1cccc2c1NC(=O)/C2=N\Nc1ccc(S(N)(=O)=O)cc1 1.12%

====

Collected inhibition values appear next to each entry.
assayed.system: Protein kinase C iota type (Homo sapiens) (UniProt P41743);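 also: reported figures are mean inhibition values from the GSK PKIS screen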
Sequence (whole entry): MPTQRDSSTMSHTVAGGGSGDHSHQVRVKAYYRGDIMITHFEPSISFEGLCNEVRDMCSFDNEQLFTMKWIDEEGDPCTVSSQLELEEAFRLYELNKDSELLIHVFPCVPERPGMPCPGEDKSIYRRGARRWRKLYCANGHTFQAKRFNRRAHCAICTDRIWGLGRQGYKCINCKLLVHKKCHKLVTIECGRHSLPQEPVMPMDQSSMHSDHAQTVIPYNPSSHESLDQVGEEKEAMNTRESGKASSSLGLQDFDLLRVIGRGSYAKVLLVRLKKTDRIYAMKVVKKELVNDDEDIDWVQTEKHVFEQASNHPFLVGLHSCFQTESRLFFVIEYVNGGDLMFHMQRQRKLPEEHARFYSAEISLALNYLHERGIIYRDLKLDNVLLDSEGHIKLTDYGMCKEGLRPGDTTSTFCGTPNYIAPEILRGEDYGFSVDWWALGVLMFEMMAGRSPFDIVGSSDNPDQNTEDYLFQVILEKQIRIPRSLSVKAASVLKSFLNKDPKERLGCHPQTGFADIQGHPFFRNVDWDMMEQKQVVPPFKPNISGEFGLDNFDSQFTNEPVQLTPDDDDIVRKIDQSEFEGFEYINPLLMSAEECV
cond: at 1 µM
Please state the figure in %; there is no need to write the unit.

Take a look at these entries with their results.
CCn1c(-c2nonc2N)nc2c(C#CC(C)(C)O)ncc(OC3CCNCC3)c21	6.53
CCN1CCC(CC(=O)Nc2n[nH]c3nnc(-c4cccc(F)c4F)cc23)CC1	1.36
CC1=C(C(=O)Nc2cc(Cl)c3[nH]ncc3c2)C(c2ccc(C(F)(F)F)cc2)CC(=O)N1 (stereo not given)	1.11

// returns reported inhibition for input O=C(Nc1n[nH]c2cc(-c3ccc(F)cc3)ccc12)C1CC1 3.67

// returns reported inhibition for input Cc1ccc2c(-c3ccnc(Nc4ccccc4)n3)c(-c3ccc(F)cc3)nn2n1 3.68
